- System: SKOV3
- test: In vitro cytotoxicity assay (CellTiter-Glo), SKOV3
- Assay type: cell-based
- experimentalConditions: SKOV3 cells, 6 days incubation, mean of IC50 values; read-out: Cytotoxicity IC50
- Procedure: Lyophilized compounds were dissolved in 100% dry DMSO, aliquots frozen and stored at −80° C. […] Shimadzu 3.0 mm×30 mm XR ODS 2.2 μm column was run at 50° C., 1.5 mL/min. […] Cells were plated in 96-well white flat-bottomed plates (Corning) at 2.0×10^3 cells per well in 100 μL culture medium. […] Following further incubation for 6 days 37° C., 5% CO2, cell viability was assessed with the use of a CellTiter-Glo Luminescent Cell Viability Assay (Promega). […]

{"givenSmiles": "CC[C@@]1(O)C(=O)OCc2c1cc1n(c2=O)Cc2c-1nc1cc(F)c(C)c3c1c2[C@@H](NC(=O)CO)CC3", "testedTarget": "SKOV3", "unitsText": "nM", "IC50": 8.6}

----------
- Test system: HT29
- test: In vitro cytotoxicity assay (CellTiter-Glo), HT29
- Type: cell-based, Human
- experimentalConditions: Homo sapiens, HT-29, 144 h, read-out: Cytotoxicity IC50
Label 1 (yes) when IC50 < 10 nM; otherwise 0 (no).

{"compound": "CC[C@@]1(O)C(=O)OCc2c1cc1n(c2=O)Cc2c-1nc1cc(F)c(C)c3c1c2[C@@H](N(C)CCO)CC3", "groupLabel": "1 (yes)"}
{"compound": "CC[C@@]1(O)C(=O)OCc2c1cc1n(c2=O)Cc2c-1nc1cc(F)c(C)c3c1c2[C@@H](N(C=O)CCO)CC3", "groupLabel": "0 (no)"}
{"compound": "CC[C@@]1(O)C(=O)OCc2c1cc1n(c2=O)Cc2c-1nc1cc(F)c(C)c3c1c2[C@@H](NC(=O)C1CC(O)C1)CC3 (some centres unmarked)", "groupLabel": "0 (no)"}
{"compound": "CC[C@@]1(O)C(=O)OCc2c1cc1n(c2=O)Cc2c-1nc1cc(F)c(C)c3c1c2[C@@H](NC(=O)c1ccc(CO)o1)CC3", "groupLabel": "0 (no)"}
{"compound": "CC[C@@]1(O)C(=O)OCc2c1cc1n(c2=O)Cc2c-1nc1cc(F)c(C)c3c1c2[C@@H](NC(=O)NCC(O)CO)CC3 (some centres unmarked)", "groupLabel": "0 (no)"}

----------
- Tested on: HT29
- test: In vitro cytotoxicity assay (CellTiter-Glo), HT29
- Assay type: cell-based, Human
- experimentalConditions: Homo sapiens, HT-29, 144 h, read-out: Cytotoxicity IC50
- Experimental: Human tumor cell lines, SK-BR-3, NCI-H292, HT-29, MCF-7, NCI-N87, and FaDu were obtained from ATCC. […] Lyophilized compounds were dissolved in 100% dry DMSO, aliquots frozen and stored at −80° C. Concentration and purity of compound stock solutions in DMSO were determined by RP-HPLC Agilent 1100 platform with 1200 DAD and SofTA ELSD detectors, and the Agilent 6150 MS system (UV/VIS, ELSD purity and MS compound identity confirmation). […]
IC50 by entry:

{"givenSmiles": "CC[C@@]1(O)C(=O)OCc2c1cc1n(c2=O)Cc2c-1nc1cc(F)c(C)c3c1c2[C@@H](Nc1c(NCCO)c(=O)c1=O)CC3", "IC50 (nM)": 180}
{"givenSmiles": "CC[C@@]1(O)C(=O)OCc2c1cc1n(c2=O)Cc2c-1nc1cc(F)c(C)c3c1c2[C@@H](NC(=S)CO)CC3", "IC50 (nM)": 4.3}
{"givenSmiles": "CC[C@@]1(O)C(=O)OCc2c1cc1n(c2=O)Cc2c-1nc1cc(F)c(C)c3c1c2[C@@H](NC(=O)CC(=O)NCCO)CC3", "IC50 (nM)": 318}

----------
- Test system: FaDu
- test: In vitro cytotoxicity assay (CellTiter-Glo), FaDu
- Assay type: cell-based, Human
- experimentalConditions: Homo sapiens, FaDu, 144 h, read-out: Cytotoxicity IC50
Label condition met when IC50 < 3 nM; otherwise condition not met.

{"compound": "CC[C@@]1(O)C(=O)OCc2c1cc1n(c2=O)Cc2c-1nc1cc(F)c(C)c3c1c2[C@@H](N)CC3 [Exatecan, exatecan]", "testedTarget": "FaDu", "groupLabel": "condition met"}
{"compound": "CC[C@@]1(O)C(=O)OCc2c1cc1n(c2=O)Cc2c-1nc1cc(F)c(C)c3c1c2[C@@H](NC(=O)C12CC(O)(C1)C2)CC3 [Compound 79]", "testedTarget": "FaDu", "groupLabel": "condition met"}
{"compound": "CC[C@@]1(O)C(=O)OCc2c1cc1n(c2=O)Cc2c-1nc1cc(F)c(C)c3c1c2[C@@H](NC(=O)NC(CO)(CO)CO)CC3 [Compound 48]", "testedTarget": "FaDu", "groupLabel": "condition met"}
{"compound": "CC[C@@]1(O)C(=O)OCc2c1cc1n(c2=O)Cc2c-1nc1cc(F)c(C)c3c1c2[C@@H](Nc1c(O)c(=O)c1=O)CC3 [Compound 129]", "testedTarget": "FaDu", "groupLabel": "condition not met"}
{"compound": "CC[C@@]1(O)C(=O)OCc2c1cc1n(c2=O)Cc2c-1nc1cc(F)c(C)c3c1c2[C@@H](Nc1c(NCCO)c(=O)c1=O)CC3 [Compound 2]", "testedTarget": "FaDu", "groupLabel": "condition not met"}
{"compound": "CC[C@@]1(O)C(=O)OCc2c1cc1n(c2=O)Cc2c-1nc1cc(F)c(C)c3c1c2[C@@H](NCCO)CC3 [Compound 105]", "testedTarget": "FaDu", "groupLabel": "condition met"}
{"compound": "CC[C@@]1(O)C(=O)OCc2c1cc1n(c2=O)Cc2c-1nc1cc(F)c(C)c3c1c2[C@@H](NC(=O)c1ccc(CO)o1)CC3 [Compound 103]", "testedTarget": "FaDu", "groupLabel": "condition met"}
{"compound": "CC[C@@]1(O)C(=O)OCc2c1cc1n(c2=O)Cc2c-1nc1cc(F)c(C)c3c1c2[C@@H](NC(=O)C#CCO)CC3 [Compound 83]", "testedTarget": "FaDu", "groupLabel": "condition not met"}
{"compound": "CC[C@@]1(O)C(=O)OCc2c1cc1n(c2=O)Cc2c-1nc1cc(F)c(C)c3c1c2[C@@H](NC(=O)c1cn(CCO)nn1)CC3 [Compound 52]", "testedTarget": "FaDu", "groupLabel": "condition not met"}
{"compound": "CC[C@@]1(O)C(=O)OCc2c1cc1n(c2=O)Cc2c-1nc1cc(F)c(C)c3c1c2[C@@H](N(C)CCO)CC3 [Compound 140]", "testedTarget": "FaDu", "groupLabel": "condition met"}
{"compound": "CC[C@@]1(O)C(=O)OCc2c1cc1n(c2=O)Cc2c-1nc1cc(F)c(C)c3c1c2[C@@H](NC(=O)CCC(=O)NCCO)CC3 [Compound 16]", "testedTarget": "FaDu", "groupLabel": "condition not met"}
{"compound": "CC[C@@]1(O)C(=O)OCc2c1cc1n(c2=O)Cc2c-1nc1cc(F)c(C)c3c1c2[C@@H](NCCNCCN)CC3 [Compound 164]", "testedTarget": "FaDu", "groupLabel": "condition not met"}
{"compound": "CC[C@@]1(O)C(=O)OCc2c1cc1n(c2=O)Cc2c-1nc1cc(F)c(C)c3c1c2[C@@H](NC(=O)Cc1cn(CCO)nn1)CC3 [Compound 66]", "testedTarget": "FaDu", "groupLabel": "condition not met"}
{"compound": "CC[C@@]1(O)C(=O)OCc2c1cc1n(c2=O)Cc2c-1nc1cc(F)c(C)c3c1c2[C@@H](NC(=O)CC(=O)NCCO)CC3 [Compound 12]", "testedTarget": "FaDu", "groupLabel": "condition not met"}
{"compound": "CC[C@@]1(O)C(=O)OCc2c1cc1n(c2=S)Cc2c-1nc1cc(F)c(C)c3c1c2[C@@H](N)CC3 [Compound 107]", "testedTarget": "FaDu", "groupLabel": "condition met"}

----------
pIC50 by entry:
- System: FaDu
- test: In vitro cytotoxicity assay (CellTiter-Glo), FaDu
- Type: cell-based, Human
- experimentalConditions: Homo sapiens, FaDu, 144 h, read-out: Cytotoxicity IC50
pIC50: −log10 of the molar value.

{"compound": "CC[C@@]1(O)C(=O)OCc2c1cc1n(c2=O)Cc2c-1nc1cc(F)c(C)c3c1c2[C@@H](NC(=O)CCC(=O)NCC(O)CO)CC3 (some centres unmarked) [Compound 117]", "testedTarget": "FaDu", "pIC50": 6.63}
{"compound": "CC[C@@]1(O)C(=O)OCc2c1cc1n(c2=O)Cc2c-1nc1cc(F)c(C)c3c1c2[C@@H](NS(=O)(=O)CCCO)CC3 [Compound 110]", "testedTarget": "FaDu", "pIC50": 7.81}
{"compound": "CC[C@@]1(O)C(=O)OCc2c1cc1n(c2=O)Cc2c-1nc1cc(F)c(C)c3c1c2[C@@H](NC(=O)[C@H]1C[C@H]1CO)CC3 (single isomer, unassigned) [Compound 111-B]", "testedTarget": "FaDu", "pIC50": 8.96}
{"compound": "CC[C@@]1(O)C(=O)OCc2c1cc1n(c2=O)Cc2c-1nc1cc(F)c(C)c3c1c2[C@@H](Nc1c(NCC(O)CO)c(=O)c1=O)CC3 (some centres unmarked) [Compound 115]", "testedTarget": "FaDu", "pIC50": 7.25}
{"compound": "CC[C@@]1(O)C(=O)OCc2c1cc1n(c2=O)Cc2c-1nc1cc(F)c(C)c3c1c2[C@@H](NC(=O)NCC(O)CO)CC3 (some centres unmarked) [Compound 118]", "testedTarget": "FaDu", "pIC50": 7.76}
{"compound": "CC[C@@]1(O)C(=O)OCc2c1cc1n(c2=O)Cc2c-1nc1cc(F)c(C)c3c1c2[C@@H](NCc1cn(CCO)nn1)CC3 [Compound 108]", "testedTarget": "FaDu", "pIC50": 8.62}
{"compound": "CC[C@@]1(O)C(=O)OCc2c1cc1n(c2=O)Cc2c-1nc1cc(F)c(C)c3c1c2[C@@H](N(C=O)CCO)CC3 [Compound 163]", "testedTarget": "FaDu", "pIC50": 8.11}
{"compound": "CC[C@@]1(O)C(=O)OCc2c1cc1n(c2=O)Cc2c-1nc1cc(F)c(C)c3c1c2[C@@H](NC(=O)OCCO)CC3 [Compound 22]", "testedTarget": "FaDu", "pIC50": 9.15}
